# Lookup of reported IC50 keyed by entry
target: Cox-1 enzyme (Ovis aries, UniProt P05979)
Sequence (P05979 25-600): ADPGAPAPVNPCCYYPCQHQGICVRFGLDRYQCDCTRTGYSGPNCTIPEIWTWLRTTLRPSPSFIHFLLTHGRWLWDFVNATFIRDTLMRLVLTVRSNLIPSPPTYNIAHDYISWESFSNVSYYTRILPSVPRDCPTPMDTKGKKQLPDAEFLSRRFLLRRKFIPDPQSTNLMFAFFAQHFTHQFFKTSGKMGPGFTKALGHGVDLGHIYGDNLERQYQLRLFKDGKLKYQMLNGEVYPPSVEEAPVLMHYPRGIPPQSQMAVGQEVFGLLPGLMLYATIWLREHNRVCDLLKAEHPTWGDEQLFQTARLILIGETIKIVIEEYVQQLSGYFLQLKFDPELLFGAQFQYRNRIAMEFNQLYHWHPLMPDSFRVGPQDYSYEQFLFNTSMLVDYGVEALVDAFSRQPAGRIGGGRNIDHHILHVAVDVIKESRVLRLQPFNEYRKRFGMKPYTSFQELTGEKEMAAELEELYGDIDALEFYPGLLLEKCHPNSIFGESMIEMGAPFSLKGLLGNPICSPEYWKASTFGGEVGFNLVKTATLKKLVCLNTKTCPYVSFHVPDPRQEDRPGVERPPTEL
measured parameter: IC50 (µM)

molecule | measured parameter | reported measurement
CC(C)(C)c1cc(C(=O)N2CC(O)C2)cc2c1OCC2(C)C | IC50 | 48.3
CC(C)(C)c1cc(C(=O)N2CC(O)C2)cc(C(C)(C)C)c1O | IC50 | 37.7
CC1C(O)CN1C(=O)c1cc(C(C)(C)C)c(O)c(C(C)(C)C)c1 (stereo not shown) | IC50 | 246
CC1(O)CN(C(=O)c2cc(C(C)(C)C)c(O)c(C(C)(C)C)c2)C1 | IC50 | 349
